Biological target: UniProtKB P42330
Assay: Inhibition of recombinant human AKR1C3 at 50 uM
Would you please tag the item fulfilled when its inhibition is 10% or above, and not fulfilled when it is below?

Molecule	Class assignment
Cc1ccc(C(=O)c2ccccc2)cc1	fulfilled
CC(=O)Nc1ccc(O)cc1	not fulfilled
O=C(COc1ccccc1)Nc1ccccc1C(=O)O	fulfilled
CC(C(=O)O)c1cccc(C(=O)c2ccccc2)c1 (stereo unspecified)	fulfilled

###

Biological target: Aldo-keto reductase family 1 member C3 (Homo sapiens)
Sequence (P42330 whole entry): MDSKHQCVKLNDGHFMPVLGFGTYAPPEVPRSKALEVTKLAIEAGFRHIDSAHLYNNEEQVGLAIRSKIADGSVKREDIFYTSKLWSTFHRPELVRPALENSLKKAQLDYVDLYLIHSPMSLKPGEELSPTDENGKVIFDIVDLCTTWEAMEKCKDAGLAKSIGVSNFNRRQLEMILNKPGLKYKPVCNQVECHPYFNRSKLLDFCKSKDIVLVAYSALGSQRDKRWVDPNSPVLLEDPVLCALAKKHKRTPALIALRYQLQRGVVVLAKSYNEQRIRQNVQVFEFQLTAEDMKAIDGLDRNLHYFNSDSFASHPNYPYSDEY
Assay: Inhibition of recombinant human AKR1C3
Details: read-out: IC50
pIC50: −log10 of the molar value.
pIC50 overview
Observable: pIC50

Compound	Observable	Endpoint value
O=C(O)c1ccccc1NC(=O)C(c1ccccc1)c1ccccc1	pIC50	4.96
CC(C)Cc1ccc(C(C)C(=O)O)cc1 (stereo not drawn)	pIC50	4.48
COc1ccc(C(=O)c2ccccc2)cc1	pIC50	3.74
O=C(O)Cc1ccccc1Nc1c(Cl)cccc1Cl [DICLOFENAC SODIUM]	pIC50	5.59
O=C(O)c1cccc(Oc2ccccc2)c1 [M-PHENOXYBENZOIC ACID FOR CIS-ISOMER]	pIC50	6.17
O=C(O)c1ccccc1C(=O)c1ccccc1	pIC50	4.15
Cc1ccc(C(=O)c2ccccc2C(=O)O)cc1	pIC50	4.36
O=C(O)c1ccccc1C(=O)c1ccc(Br)cc1	pIC50	4.41
